These entries and their values trace back to ChEMBL document CHEMBL1126487.

experiment: Toxicity against human Osteogenic sarcoma (Hos)cells; settings: read-out: LD50 (the source's name)
CC50 for assorted molecules
Express your answer in µM, writing the number without its unit.

Using the record for "O=C(N[C@H]1CCc2cc(O)c(O)c(O)c2-c2ccc(=O)c(O)cc21)C(F)(F)F" , report its CC50. 14

Using the record for "O=C(N[C@H]1CCc2cc(O)c(O)c(O)c2-c2ccc(=O)c(O)cc21)c1cc(O)c(O)c(O)c1" , report its CC50. 18

---

system: HOS; assay: Effective concentration required to inhibit growth of sub clone Hos colR cells; type: functional, cell-based; settings: Homo sapiens
EC50 for assorted compounds
Express your answer in µM, writing the number without its unit.

Using the record for "O=C(N[C@H]1CCc2cc(O)c(O)c(O)c2-c2ccc(=O)c(O)cc21)C(F)(F)F" , report its EC50. 26

Now turn to the next compound.
Using the record for "O=C(N[C@H]1CCc2cc(O)c(O)c(O)c2-c2ccc(=O)c(O)cc21)c1cc(O)c(O)c(O)c1" , report its EC50. 28
